Where a name gives a salt, the structure may show the parent alone.
assay endpoint: melting point

1. C=C(CON)c1ccccc1 (as salt: hydrochloride) :: 101 to 102 °C
2. C=C(CN(N)CC)c1ccc(Cl)cc1.Cl :: 150 to 151 °C
3. C=C(CN(C)NC)c1ccc(Cl)cc1.Cl :: 108 to 110 °C

**Q:** Quick check: melting point of C=C(CNNC)c1ccc(F)cc1.Cl ?
**A:** 128 to 129 °C

* * *

assay: Acute toxicity studies in mice; assay type: in vivo; details: female, C57B1/6, mouse, in vivo, iv, single i.v. injection, Day 7 values, read-out: LD50 intravenous
# LD50 at 7 days annotations

Reference set, count: 2
1. C=C(CNN)c1ccc(F)cc1.Cl [Example 8] :: > 100 mg/kg
2. Cl.NNC/C(=C/F)c1ccccc1 [Example 10] :: > 100 mg/kg

Shifting focus to the molecule that follows.
**Q:** Quick check: LD50 at 7 days of NC/C(=C/F)CCc1ccc(F)cc1 [Mofegiline, mofegiline, reference compound] ?
**A:** 70 mg/kg
